- Assay Remarks: MELAS cybrid and Rieske KO viability enhancers – cell-based, MELAS cybrids, Rieske KO mouse fibroblasts, CellTiter-Glo, primary screen (AID 1508586);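 further: test concentration not given here; z relative to plate mean and SD of compound and empty wells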
- Condition Parameters: Rieske KO mouse fibroblast survival, low glucose, CellTiter-Glo 72 h
Attribute: z-score
Reported Endpoint: z-score

- O=C(c1cccc(=O)[nH]1)N(Cc1cccnc1)Cc1ccc2c(c1)OCO2: 0.234
- NC[C@H]1O[C@H](O[C@H]2[C@H](O)[C@@H](O[C@H]3O[C@H](CO)[C@@H](O)[C@H](N)[C@H]3O)[C@H](N)C[C@@H]2N)[C@H](O)[C@@H](O)[C@@H]1O: -0.145
- COc1cccc(-n2cc(-c3ccnc(NCCc4cnc[nH]4)n3)cn2)c1: 0.696
- NC[C@H]1O[C@H](OC2[C@@H](N)C[C@@H](N)[C@H](O)[C@H]2O[C@@H]2O[C@H](CO)[C@@H](O)[C@H]2O)[C@H](N)[C@@H](O)[C@@H]1O (stereo not given in full): 0.171
- Cc1cc(Cn2cnc3c2CC(C(=O)O)N(C(=O)C(c2ccccc2)c2ccccc2)C3)ccc1N(C)C (stereo not given): -1.41
- CC1(C)OC2CO[C@@]3(COS(N)(=O)=O)OC(C)(C)OC3C2O1 (stereo not given in full): -0.659
- O=C(O)C=Cc1ccc(O)c(O)c1: 0.227
- Cc1ccc(Cl)cc1N(CC(=O)Nc1c(F)cccc1F)S(C)(=O)=O: 0.642
- c1ccn2cc(CCNc3ncnc4nc[nH]c34)nc2c1: -0.578
- CC(NC(=O)CCc1nc2ccccc2c(=O)[nH]1)c1ccccc1 (stereo not given): -0.138
- CN1CCN(Cc2ccc(-c3nc(-c4cccnc4)cc(=O)[nH]3)cc2)CC1: -0.261
- Cn1cc(/C=C/C(=O)N2CCc3[nH]nc(-c4ccccc4F)c3C2)cn1: -0.29
- Oc1ccc(OC2CCCCO2)cc1 (stereo not given): -0.263
- CCC(C(C)O)n1ncn(-c2ccc(N3CCN(c4ccc(OCC5CO[C@@](Cn6cncn6)(c6ccc(F)cc6F)C5)cc4)CC3)cc2)c1=O (stereo not given in full): 0.236
- CS(=O)(=O)c1ccc(C(O)C(CF)NC(=O)C(Cl)Cl)cc1 (stereo not given): -0.0314
- Cc1ncc(CNc2cc(C(=O)Nc3cccc(N(C)C)c3)cc(S(=O)(=O)N3CCCC3)c2)[nH]1: -0.237
- O=C(CCc1ccc(O)cc1)c1c(O)cc(O)cc1OC1OC(CO)C(O)C(O)C1O (stereo not given): 0.518
- COc1ccc(C(=O)N2CCN3C(=O)[C@H](COCc4ccccc4)NC(=O)[C@H]3C2)cc1: -0.655
- COc1cc2c(c(OC)c1OC)-c1c(cc3c(c1OC)OCO3)CC(C)C(C)C2 (stereo not given): -0.149
- Nc1nc(=O)n(C2CSC(CO)O2)cc1F (stereo not given): 0.564

---

- Assay Remarks: viability loss with induced miR-34 in A549 – imaging, A549 dox-inducible miR-34, nuclei and caspase counts, primary screen (AID 1347080); further: test concentration not given here
- Condition Parameters: A549 miR-34 inducible, Hoechst nuclei count, 48 h; measured here: relative caspase fold change +Dox/-Dox
Reported Endpoint: fold change

* NC(Cc1c[nH]c2ccc(O)cc12)C(=O)O (configuration not stated) | 0.739
* O=C(Nc1ccccc1)c1ccn[nH]1 | 0.232
* Cc1cc(C(C)Nc2ccccc2C(=O)O)c2nc(N3CCOCC3)cc(=O)n2c1 (configuration not stated) | 0.866
* CCCCNc1ncc(C(=O)NCc2ccc(-n3ccnc3)cc2)c(NC2CCC(O)CC2)n1 (configuration not stated) | 0.249
* CCC1=CC2CN(C1)Cc1c([nH]c3ccccc13)[C@@](C(=O)OC)(c1cc3c(cc1OC)N(C)[C@@H]1[C@@]34CCN3CC=C[C@@](CC)(C(OC(C)=O)[C@]1(O)C(=O)OC)[C@@H]34)C2 (some centres not stated) | 0.608
* NC1(C(=O)O)CCc2cc(C(=O)O)ccc21 (configuration not stated) | 1.76
* CC(Cc1cc2c(c(C(N)=O)c1)N(CCCO)CC2)NCCOc1ccccc1OCC(F)(F)F (configuration not stated) | 0.814
* O=C(O)C(S)=Cc1c[nH]c2ccc(F)cc12 | 0.47
* O=C1CCC(CC(=O)N2CCc3[nH]nc(-c4ccc5c(c4)OCO5)c3C2)N1 (configuration not stated) | 1.24
* CCC(=C(CC)c1ccc(O)cc1)c1ccc(O)cc1 | 1.22
* COc1cc(-c2cc(-c3cccc(O)c3)cnc2N)cc(OC)c1OC | 0.388
* Nc1nc2ccccc2c(=O)[nH]1 | 0.247
* COc1ccc2nc(Cn3cnc4cc(F)ccc4c3=O)[nH]c2c1 | 1.56
* N#CC(=C(N)Sc1ccc(N)cc1)c1ccccc1C(F)(F)F | 0.881
* CC(C)c1onc(-c2c(Cl)cccc2Cl)c1COc1ccc(C=Cc2cccc(C(=O)O)c2)c(Cl)c1 | 1.37
* C=C1CCC(O)CC1=CC=C1CCC[C@@]2(C)[C@H]1CC[C@H]2C(C)CCCC(C)(C)O (some centres not stated) | 0.682
* O=c1ccn(C2OC(CO)C(O)C2O)c(=O)[nH]1 (configuration not stated) | 0.784
* C=CC1=C(C(=O)O)N2C(=O)C(NC(=O)C(=NOCC(=O)O)c3csc(N)n3)C2SC1 (configuration not stated) | 0.894
* CNCCNS(=O)(=O)c1cccc2cnccc12 | 1.37
* CCn1cnc(NC(=O)N(C)CC2Cc3ccccc3O2)n1 (configuration not stated) | 1.16
* O=C1c2ccccc2C(=O)c2c(NCCc3ccc(O)cc3)ccc(NCCc3ccc(O)cc3)c21 | 1.12
* O=C1C=CC(=O)c2c1ccc1c2ccc2ccccc21 | 1.13

Just for reference, PubChem BioAssay is where these values come from.
